Entry source: the supplement of paper PMC4166925

# System: SpTbr T-box DNA-binding domain (GST fusion);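 note: protein at 200 nM in PBS on universal double-stranded arrays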
# Sequence: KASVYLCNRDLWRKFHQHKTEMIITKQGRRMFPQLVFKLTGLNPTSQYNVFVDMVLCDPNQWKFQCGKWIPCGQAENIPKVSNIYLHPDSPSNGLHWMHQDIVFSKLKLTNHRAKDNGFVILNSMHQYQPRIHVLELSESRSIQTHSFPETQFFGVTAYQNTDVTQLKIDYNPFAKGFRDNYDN
# method summary: PBM E-score of 8-mer (E-score (dimensionless, -0.5 to 0.5)); Tbr is Tbrain of the sea star Patiria miniata (Pm) or the sea urchin Strongylocentrotus purpuratus (Sp); higher = stronger binding preference
# setup conditions: the construct has about 5 more residues each side
Whole data set: some 33,000 sequences, median “E-score (dimensionless, -0.5 to 0.5)” near -0.046, cut for the highest 2% near 0.36. The list comes from a sample in which the highest values are over-represented; it also holds close analogues and randomly drawn sequences.
Decide by PBM E-score of 8-mer: equal to or exceeding 0.2 means Criterion met, less means Criterion not met.

chain	group
CGTGAGAA	Criterion met
AGTCTTGG	Criterion not met
GTCCACAC	Criterion met
AGGGAGCC	Criterion not met
GTCCACAA	Criterion not met
AGGCATTG	Criterion not met
ACGACACT	Criterion met
TCGCGCGA	Criterion met
AACAAGGT	Criterion met
TAATATTA	Criterion not met
ACAGTCCG	Criterion not met
GGAGTCAA	Criterion not met
TGTGAGAA	Criterion met
ACTGAGGA	Criterion not met
CCACGCGA	Criterion not met
TCTGAGAA	Criterion not met
CCGACACA	Criterion met
GCGCGCGA	Criterion met
ACAATGCG	Criterion met
AGGAAACT	Criterion not met
GAGTAAAC	Criterion not met
CCGACACG	Criterion met
AAGGAGAT	Criterion not met
ACGACACG	Criterion met
GGTGAGGA	Criterion met
CGTGAGAC	Criterion met
CGCGCTAA	Criterion met
GCGACACA	Criterion met
ACGACACC	Criterion met
CTTTCTAA	Criterion not met
TGCGCTAA	Criterion not met
GCGCGCCA	Criterion not met
CTCCACAC	Criterion met
GCTGAGAA	Criterion met
GATATAGC	Criterion not met
GCGACACC	Criterion met
GTATTGAC	Criterion not met
GACGCGAA	Criterion not met
TGAGAGAA	Criterion not met
AATACTGG	Criterion not met
